These measurements were taken from ChEMBL document CHEMBL5620412.

Kindly state IC50 for each of the entries shown.
# Tested system: UniProtKB Q9Y2R2
# Sequence (Q9Y2R2 whole entry): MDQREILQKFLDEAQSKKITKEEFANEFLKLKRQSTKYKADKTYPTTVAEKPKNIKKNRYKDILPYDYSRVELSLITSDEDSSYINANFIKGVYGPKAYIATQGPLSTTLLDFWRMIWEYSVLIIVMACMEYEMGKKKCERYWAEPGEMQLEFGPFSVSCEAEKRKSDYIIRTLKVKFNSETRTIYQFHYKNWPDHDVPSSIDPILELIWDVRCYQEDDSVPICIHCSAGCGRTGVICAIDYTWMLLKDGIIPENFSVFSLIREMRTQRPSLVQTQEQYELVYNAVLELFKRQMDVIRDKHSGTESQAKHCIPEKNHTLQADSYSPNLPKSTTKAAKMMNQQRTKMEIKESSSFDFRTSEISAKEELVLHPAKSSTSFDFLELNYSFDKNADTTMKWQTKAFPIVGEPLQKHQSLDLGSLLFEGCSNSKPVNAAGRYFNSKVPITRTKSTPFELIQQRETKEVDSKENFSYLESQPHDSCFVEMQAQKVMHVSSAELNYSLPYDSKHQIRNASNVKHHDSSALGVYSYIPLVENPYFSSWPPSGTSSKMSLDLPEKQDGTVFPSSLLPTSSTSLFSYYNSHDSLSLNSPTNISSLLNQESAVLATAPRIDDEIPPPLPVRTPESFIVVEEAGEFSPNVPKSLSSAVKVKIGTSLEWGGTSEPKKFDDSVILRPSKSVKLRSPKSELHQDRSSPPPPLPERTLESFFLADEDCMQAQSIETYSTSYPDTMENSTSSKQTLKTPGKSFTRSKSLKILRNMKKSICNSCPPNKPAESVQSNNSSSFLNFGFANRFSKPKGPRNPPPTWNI
Numbers only, in µM.

| Chemical structure | Result units | Readout number |
| --- | --- | --- |
| O=C(O)c1cc2cc(N(Cc3ccc(-c4ccccc4)cc3)S(=O)(=O)c3ccc(-c4cccc(O)c4)cc3)ccc2o1 | µM | 3.59 |
| CCCCCCNc1ccc(S(=O)(=O)N(Cc2ccc(-c3ccccc3)cc2)c2ccc3oc(C(=O)O)cc3c2)cc1[N+](=O)[O-] | µM | 5.56 |
| O=C(O)c1cc2cc(N(Cc3ccc(Oc4ccccc4)cc3)S(=O)(=O)c3ccc(Cl)c([N+](=O)[O-])c3)ccc2o1 | µM | 5.67 |

Find the recorded IC50 belonging to O=C(O)c1cc2cc(N(Cc3ccc(-c4ccc(Cl)cc4)cc3)S(=O)(=O)c3ccc(-c4ccccc4)cc3)ccc2o1 and report it.
4.36
